assaySystem: Progesterone receptor (Homo sapiens, UniProt P06401); also: assay procedure not described here
Sequence (P06401 whole entry): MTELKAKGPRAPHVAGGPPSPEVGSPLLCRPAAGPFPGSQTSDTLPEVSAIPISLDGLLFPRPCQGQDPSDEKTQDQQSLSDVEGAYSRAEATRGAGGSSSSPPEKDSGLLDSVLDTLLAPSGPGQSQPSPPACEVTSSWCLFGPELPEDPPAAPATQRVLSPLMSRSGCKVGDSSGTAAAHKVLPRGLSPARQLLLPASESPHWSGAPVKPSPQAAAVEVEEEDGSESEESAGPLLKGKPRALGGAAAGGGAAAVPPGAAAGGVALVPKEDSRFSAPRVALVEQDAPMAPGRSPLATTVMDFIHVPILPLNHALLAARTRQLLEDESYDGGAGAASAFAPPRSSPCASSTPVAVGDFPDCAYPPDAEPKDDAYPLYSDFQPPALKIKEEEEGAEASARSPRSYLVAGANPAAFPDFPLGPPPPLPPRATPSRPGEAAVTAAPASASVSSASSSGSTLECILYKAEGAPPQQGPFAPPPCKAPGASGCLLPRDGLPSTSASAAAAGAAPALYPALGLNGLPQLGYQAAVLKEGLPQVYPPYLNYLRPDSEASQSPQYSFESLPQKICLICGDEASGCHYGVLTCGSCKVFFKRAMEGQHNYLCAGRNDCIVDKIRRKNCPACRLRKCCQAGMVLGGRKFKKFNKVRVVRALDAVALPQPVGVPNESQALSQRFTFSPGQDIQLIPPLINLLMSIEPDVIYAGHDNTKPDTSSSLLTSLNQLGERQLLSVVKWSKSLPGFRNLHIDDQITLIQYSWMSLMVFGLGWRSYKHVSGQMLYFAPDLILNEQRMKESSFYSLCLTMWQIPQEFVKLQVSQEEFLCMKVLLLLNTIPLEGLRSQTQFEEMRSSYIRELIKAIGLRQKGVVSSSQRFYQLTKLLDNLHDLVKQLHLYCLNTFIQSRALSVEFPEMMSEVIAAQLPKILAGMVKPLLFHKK
Format: functional
propertyName: AC50

Req: Which value of AC50 has been reported for Clc1ccc(CCC(Cn2ccnc2)Sc2c(Cl)cccc2Cl)cc1 (centres undefined) in the records?
Resp: > 30 µM

Req: Fill blank: measured AC50 of the molecule `NNC(=O)c1ccncc1` is ____.
Resp: > 30 µM

Req: Look at this molecule and give its reported AC50. Cc1cccc(C)c1NC(=O)CC12CCCN1CCC2 [PILSICAINIDE]
Resp: > 30 µM

Req: Value lookup for AC50; key = `CC(C)C[C@H](NC(=O)[C@@H](O)[C@H](N)Cc1ccccc1)C(=O)O`
Resp: > 30 µM

Req: Value lookup for AC50; key = `Cc1cc(C)nc(NS(=O)(=O)c2ccc(N)cc2)n1`
Resp: > 10 µM

Req: If you can, please state the reported AC50 value of `C=CC[N+]1([C@H]2C[C@H]3[C@@H]4CC[C@H]5C[C@H](O)[C@@H](N6CCOCC6)C[C@]5(C)[C@H]4CC[C@]3(C)[C@H]2OC(C)=O)CCCC1` .
Resp: > 30 µM

Req: Query (molecule): `Cc1nc(Nc2ncc(C(=O)Nc3c(C)cccc3Cl)s2)cc(N2CCN(CCO)CC2)n1` ; field requested: AC50
Resp: > 30 µM

Req: Looking for the measured AC50 of `O=C(c1cc(Cc2n[nH]c(=O)c3ccccc23)ccc1F)N1CCN(C(=O)C2CC2)CC1` , can you help?
Resp: > 30 µM

Req: Requested read-out: AC50. Entry: `COc1ccc2cc(CCC(C)=O)ccc2c1`
Resp: > 10 µM

Req: Which AC50 is reported for this molecule? `CCc1nc(N)nc(N)c1-c1ccc(Cl)cc1`
Resp: > 10 µM

Req: Form field: reported AC50 of `OC[C@H]1O[C@@H](n2cnc3c2NC=NC[C@H]3O)C[C@@H]1O`
Resp: > 30 µM

Req: Query (molecule): NC(=O)NC(=O)Cc1ccccc1 [PHENACEMIDE] ; field requested: AC50
Resp: > 10 µM

Req: Entry CCCN1CC(NS(=O)(=O)N(CC)CC)CC2Cc3c(O)cccc3CC21 (centres undefined) [QUINAGOLIDE] : reported AC50 = ?
Resp: > 30 µM

Req: Any idea what its AC50 is? The molecule is CC(C)(C)NCC(O)c1ccccc1Cl (centres undefined)
Resp: > 30 µM

Req: State the recorded AC50 for this entry: `CCC1(CCC(C)C)C(=O)NC(=O)NC1=O`
Resp: > 10 µM

Req: // AC50 lookup, key: `CNC(=C[N+](=O)[O-])NCCSCc1csc(CN(C)C)n1`
Resp: > 10 µM

Req: If you can, please state the reported AC50 value of `Oc1ccc(CCNCCCCCCNCCc2ccccc2)cc1O` .
Resp: > 30 µM

Req: Which measured AC50 value corresponds to `CCOc1nc2cccc(C(=O)O)c2n1Cc1ccc(-c2ccccc2-c2nnn[nH]2)cc1` ?
Resp: > 30 µM

Req: Need AC50 of `C[C@]12C=CC(=O)C=C1CC[C@@H]1[C@@H]2CC[C@]2(C)OC(=O)CC[C@@H]12` , thanks.
Resp: > 10 µM

====

For Melanocortin receptor 3 (Homo sapiens), measured AC50 is reported for the entries below.

Req: # lookup: AC50 of CC(CN(C)C)C(C)(O)Cc1ccc(Cl)cc1 (stereo not drawn) [CLOBUTINOL]
Resp: > 30 µM

Req: Any idea what its AC50 is? The compound is Cc1onc(-c2c(F)cccc2Cl)c1C(=O)N[C@@H]1C(=O)N2[C@@H]1SC(C)(C)[C@@H]2C(=O)O [FLOXACILLIN]
Resp: > 30 µM

Req: Record request: AC50 value, item Cc1nnc(SCC2=C(C(=O)O)N3C(=O)[C@@H](NC(=O)Cn4cnnn4)[C@H]3SC2)s1 [CEFAZOLIN]
Resp: > 300 µM

Req: What measured AC50 goes with CCc1nc(N)nc(N)c1-c1ccc(Cl)cc1 [PYRIMETHAMINE] ?
Resp: > 10 µM

Req: Requested read-out: AC50. Entry: CCOC(=O)[C@@H](N)Cc1ccc(-c2cc(O[C@H](c3ccc(Cl)cc3-n3ccc(C)n3)C(F)(F)F)nc(N)n2)cc1 [TELOTRISTAT ETHYL]
Resp: 12 µM

Req: What does the data say about its AC50? Entry: COc1ccc([C@@H]2CC(=O)c3c(O)cc(O)cc3O2)cc1O [HESPERETIN]
Resp: > 10 µM

Req: Which value of AC50 has been reported for CC(C)c1cccc(C(C)C)c1O [PROPOFOL] in the records?
Resp: > 30 µM

Req: Name the recorded AC50 for CCOC(=O)C1=C(C)NC(C)=C(C(=O)OCC)C1c1ccccc1/C=C/C(=O)OC(C)(C)C [LACIDIPINE] .
Resp: > 30 µM

====

Field: AC50. Provide a value for each of the compounds that follow.
assaySystem: Muscarinic acetylcholine receptor M1 (Homo sapiens, UniProt P11229); also: assay procedure not described here
Sequence (P11229 whole entry): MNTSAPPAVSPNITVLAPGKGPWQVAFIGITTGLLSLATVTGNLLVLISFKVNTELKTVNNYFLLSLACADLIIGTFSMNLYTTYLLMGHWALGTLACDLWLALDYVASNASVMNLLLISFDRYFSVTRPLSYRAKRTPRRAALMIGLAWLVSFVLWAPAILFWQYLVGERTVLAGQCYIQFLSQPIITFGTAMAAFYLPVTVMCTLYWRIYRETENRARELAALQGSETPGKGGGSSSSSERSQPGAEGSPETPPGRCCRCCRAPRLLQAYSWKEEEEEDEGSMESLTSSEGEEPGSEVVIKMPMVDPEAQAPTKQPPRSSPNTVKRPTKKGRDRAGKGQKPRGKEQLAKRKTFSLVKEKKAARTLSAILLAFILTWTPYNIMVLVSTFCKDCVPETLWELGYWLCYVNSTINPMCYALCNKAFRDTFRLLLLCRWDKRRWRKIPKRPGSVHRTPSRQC
Format: functional, cell-based

Req: # returns recorded AC50 (system: Muscarinic acetylcholine receptor M1 (Homo sapiens, UniProt P11229)) for `C[N+](C)(C)CCOP(=O)(O)OP(=O)([O-])OC[C@H]1O[C@@H](n2ccc(N)nc2=O)[C@H](O)[C@@H]1O`; also: assay procedure not described here
Resp: > 30 µM

Req: Form field: AC50 recorded for `CCCn1cnc2c1c(=O)n(CCCCC(C)=O)c(=O)n2C` with Muscarinic acetylcholine receptor M1 (Homo sapiens, UniProt P11229) (enter value)
Resp: > 30 µM

Req: Fill in the recorded AC50 for this compound, with Muscarinic acetylcholine receptor M1 (Homo sapiens, UniProt P11229) as test system: `C=N[C@@H](C(=O)N[C@@H]1C(=O)N2[C@@H]1SC(C)(C)[C@@H]2C(=O)O)c1ccccc1`
Resp: > 30 µM

Req: Give recorded AC50 with Muscarinic acetylcholine receptor M1 (Homo sapiens, UniProt P11229) for the following compound: `N[C@@H](Cc1ccccc1)C(=O)O`
Resp: > 30 µM

Req: // lookup AC50 | system=Muscarinic acetylcholine receptor M1 (Homo sapiens, UniProt P11229) | key= CC(=O)NO [ACETOHYDROXAMIC ACID]; also: assay procedure not described here
Resp: > 30 µM

Req: Hello, I am looking for reported AC50 with Muscarinic acetylcholine receptor M1 (Homo sapiens, UniProt P11229) for `CC(C)[C@@H]1CC[C@@H](C)C[C@H]1O` . Could you help?
Resp: > 30 µM

Req: // fetch Muscarinic acetylcholine receptor M1 (Homo sapiens, UniProt P11229) AC50 for CCCCC1C(=O)N(c2ccccc2)N(c2ccc(O)cc2)C1=O (configuration not stated) [OXYPHENBUTAZONE ANHYDROUS]
Resp: > 30 µM

Req: Under Muscarinic acetylcholine receptor M1 (Homo sapiens, UniProt P11229): AC50 value of `C[C@@H]1C[C@H]2[C@@H]3C[C@H](F)C4=CC(=O)C=C[C@]4(C)[C@H]3[C@@H](O)C[C@]2(C)[C@@]1(O)C(=O)CO` ?
Resp: > 30 µM

Req: # query: AC50 | item `C[N+](C)(CCCCCC[N+](C)(C)C1c2ccccc2-c2ccccc21)C1c2ccccc2-c2ccccc21` | system: Muscarinic acetylcholine receptor M1 (Homo sapiens, UniProt P11229); also: assay procedure not described here
Resp: 7.41 µM

Req: Muscarinic acetylcholine receptor M1 (Homo sapiens, UniProt P11229) / AC50 / `NC(=O)[C@@H]1CC[C@@H]2CN1C(=O)N2OS(=O)(=O)O` : value?
Resp: > 30 µM

Req: What measured AC50 is associated with `Cc1ccsc1C(=CCCN1CCC[C@@H](C(=O)O)C1)c1sccc1C` on Muscarinic acetylcholine receptor M1 (Homo sapiens, UniProt P11229)?
Resp: > 30 µM

Req: Give recorded AC50 with Muscarinic acetylcholine receptor M1 (Homo sapiens, UniProt P11229) for the following compound: `CC(C)C(=O)Oc1ccc(CO)cc1[C@H](CCN(C(C)C)C(C)C)c1ccccc1`
Resp: 0.354 µM

Req: Short answer please: AC50, Muscarinic acetylcholine receptor M1 (Homo sapiens, UniProt P11229), entry `O=C(O)CN(CCN(CC(=O)O)CC(=O)O)CCN(CC(=O)O)CC(=O)O`
Resp: > 30 µM

Req: API: value(readout= AC50, system= Muscarinic acetylcholine receptor M1 (Homo sapiens, UniProt P11229), query= `COc1cc(C(C)=O)ccc1OCCCN1CCC(c2noc3cc(F)ccc23)CC1` ); also: assay procedure not described here
Resp: > 10 µM

Req: What reported AC50 corresponds to `CCC[C@H](N[C@@H](C)C(=O)N1[C@H](C(=O)O)C[C@@H]2CCCC[C@@H]21)C(=O)OCC` on Muscarinic acetylcholine receptor M1 (Homo sapiens, UniProt P11229)?
Resp: > 30 µM

Req: Recorded AC50 for `C[C@H](N[C@@H](CCc1ccccc1)C(=O)O)C(=O)N1Cc2ccccc2C[C@H]1C(=O)O` with Muscarinic acetylcholine receptor M1 (Homo sapiens, UniProt P11229), please?
Resp: > 30 µM

Req: Entry O=C(NNCS(=O)(=O)O)c1ccncc1 [METHANIAZIDE] , system Muscarinic acetylcholine receptor M1 (Homo sapiens, UniProt P11229): what AC50 was measured?; also: assay procedure not described here
Resp: > 30 µM
